Quick record of IC50 values for UniProt O42275.
Sequence (O42275 whole entry): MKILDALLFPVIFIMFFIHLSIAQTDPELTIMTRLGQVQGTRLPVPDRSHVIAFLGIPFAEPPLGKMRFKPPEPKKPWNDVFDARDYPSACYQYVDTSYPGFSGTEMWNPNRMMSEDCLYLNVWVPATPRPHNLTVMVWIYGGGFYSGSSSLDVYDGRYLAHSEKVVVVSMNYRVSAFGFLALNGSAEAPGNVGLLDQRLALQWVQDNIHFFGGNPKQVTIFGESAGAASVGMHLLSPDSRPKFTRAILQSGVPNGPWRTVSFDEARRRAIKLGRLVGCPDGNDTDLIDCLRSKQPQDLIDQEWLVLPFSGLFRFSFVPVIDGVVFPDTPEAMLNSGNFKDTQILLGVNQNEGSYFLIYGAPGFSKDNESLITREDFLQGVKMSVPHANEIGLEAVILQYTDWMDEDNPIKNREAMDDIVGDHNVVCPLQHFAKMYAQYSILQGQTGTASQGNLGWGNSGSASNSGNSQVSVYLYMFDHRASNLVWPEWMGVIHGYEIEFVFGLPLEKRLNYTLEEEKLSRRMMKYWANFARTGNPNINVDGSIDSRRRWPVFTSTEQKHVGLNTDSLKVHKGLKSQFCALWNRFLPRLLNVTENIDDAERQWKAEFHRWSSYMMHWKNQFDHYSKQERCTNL
Entry rule: numbers only, all in µM.

- CCc1nn(CC(=O)NCCCN2C[C@H](C)C[C@@H](C)C2)c(=O)c2cc3sc(C)cc3n12: 2
- CCc1nc2sc3c(NCCN(C)C)ncnc3c2c2c1CCCC2: 1
- O=C(C1CCN(c2nnc(N3CCCC3=O)s2)CC1)N1CCCCCC1: 1
- CCN(CC)c1ccc(NC(=O)c2nc3nc(C)cc(C(F)F)n3n2)cc1: 1
- O=C(CN1CCCCC1)Nc1ccc(NC(=O)CN2CCCCC2)c(Cl)c1: 1
- COc1ccc(Br)cc1C(=O)Nc1ccc(CN2CCCCC2)cc1: 1
- Cc1ccc(OCC(=O)Nc2ccc(CN3CCCCC3)cc2)c(C)c1: 1
- CCOC(=O)c1c(NC(=O)CCN2CCC(C)CC2)sc2c1C[C@@H](C)CC2: 5.99
- Cc1cc(N2CCCC2)nc2ccc(NC(=O)CCC(=O)NC3CCCCC3)cc12: 1

Now for another entry.
Query: // IC50 lookup, key: "CCOC(=O)c1c(-c2ccc(OC)c(OC)c2)csc1NC(=O)CCN1CCC(C)CC1"
Reply: 3.28

# credit: ChEMBL document CHEMBL1667857
